Origin of measurements: ChEMBL document CHEMBL1140411

System: Plasmodium falciparum
TEST SUMMARY: In vitro inhibitory activity against Plasmodium falciparum as [3H]hypoxanthine (50 uL) incorporation at 37C
Assay type: functional, organism-based
pIC50: −log10 of the molar value.
READOUT: pIC50

Please review the entries below; each comes with its answer.
query: Param item = CC(=O)NCC1OC(n2ccc(=O)[nH]c2=O)CC1O (stereo not given) ; retrieve measured pIC50.
result: < 4.72

query: Param item = Cc1ccc(S(=O)(=O)OC[C@H]2O[C@@H](n3ccc(=O)[nH]c3=O)C[C@@H]2O)cc1 ; retrieve measured pIC50.
result: < 4.89

query: Param item = CCCCC(=O)NCC1OC(n2ccc(=O)[nH]c2=O)CC1O (stereo not given) ; retrieve measured pIC50.
result: < 4.80

query: Param item = CC(C)(C)[Si](C)(C)O[C@H]1C[C@H](n2ccc(=O)[nH]c2=O)O[C@@H]1CO ; retrieve measured pIC50.
result: < 4.82

query: Param item = O=c1ccn([C@H]2C[C@H](F)[C@@H](CO)O2)c(=O)[nH]1 ; retrieve measured pIC50.
result: < 4.68

query: Param item = CCOP(=O)(OCC)OC[C@H]1O[C@@H](n2ccc(=O)[nH]c2=O)C[C@@H]1O[Si](C)(C)C(C)(C)C ; retrieve measured pIC50.
result: < 5.00

Now turn to the next compound.
query: Param item = CS(=O)(=O)NCC1OC(n2ccc(=O)[nH]c2=O)CC1O (stereo not given) ; retrieve measured pIC50.
result: < 4.80
